biological target: FAAH (Mus musculus); construct: mouse brain membrane fraction or cell lysates for mouse assays; assay: In vitro competitive activity-based protein profiling, mouse FAAH
Sequence (O08914 whole entry): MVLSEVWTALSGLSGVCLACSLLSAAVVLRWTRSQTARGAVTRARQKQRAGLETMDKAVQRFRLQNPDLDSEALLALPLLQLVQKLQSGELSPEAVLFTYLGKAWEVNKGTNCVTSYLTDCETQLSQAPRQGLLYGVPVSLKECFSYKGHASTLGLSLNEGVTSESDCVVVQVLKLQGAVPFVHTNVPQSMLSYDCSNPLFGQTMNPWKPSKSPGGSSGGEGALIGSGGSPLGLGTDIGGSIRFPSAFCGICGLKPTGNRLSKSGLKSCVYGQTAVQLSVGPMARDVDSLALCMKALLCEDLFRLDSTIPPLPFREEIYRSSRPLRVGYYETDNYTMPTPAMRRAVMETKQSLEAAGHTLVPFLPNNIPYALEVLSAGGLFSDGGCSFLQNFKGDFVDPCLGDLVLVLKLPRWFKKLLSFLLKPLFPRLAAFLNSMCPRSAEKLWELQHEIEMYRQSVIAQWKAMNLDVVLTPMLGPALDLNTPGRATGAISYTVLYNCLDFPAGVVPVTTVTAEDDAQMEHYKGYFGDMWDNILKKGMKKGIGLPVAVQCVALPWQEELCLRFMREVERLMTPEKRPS

compound	measurementTarget	IC50
O=C(N1CCC2(CCN(Cc3ccc(Cl)c(Cl)c3)C2)C1)n1cc(Cl)cn1 (single isomer, unassigned) [Example 140]	FAAH (Mus musculus)	≤ 0.1 µM
COc1cccc(CN2CC3CN(C(=O)n4cc(C(F)(F)F)cn4)CC3C2)c1 (centres unmarked)	FAAH (Mus musculus)	≤ 0.1 µM
CC(C)c1ccc(CN2CC3CN(C(=O)n4cc(Cl)cn4)CC3C2)c(N2CCCC2)c1 (centres unmarked)	FAAH (Mus musculus)	1 to 10 µM
NC(=O)c1cnn(C(=O)N2CC[C@]3(CCN(Cc4ccc(N5CCOCC5)cc4C(F)(F)F)C3)C2)c1	FAAH (Mus musculus)	≤ 0.1 µM
O=C(N1CCC2(CCN(Cc3ccc(F)cc3)C2)C1)n1cc(C(F)(F)F)cn1 (centres unmarked)	FAAH (Mus musculus)	0.1 to 1 µM
O=C(N1CC2CN(Cc3ccc(Cl)cc3)CC2C1)n1cc(Cl)cn1 (centres unmarked)	FAAH (Mus musculus)	≤ 0.1 µM
CNC(=O)c1cnn(C(=O)N2CC3CN(Cc4cc(Cl)ccc4Cl)CC3C2)c1 (centres unmarked)	FAAH (Mus musculus)	≤ 0.1 µM
O=C(N1CCC2(CCN(Cc3ccc(N4CCCC4)cc3)C2)C1)n1cc(Cl)cn1 (centres unmarked)	FAAH (Mus musculus)	≤ 0.1 µM
